NADPH fluorescence slope listing for selected compounds.
Tgt: Voltage-gated potassium channel subunit beta-2 (Rattus norvegicus) (UniProt P62483)
Sequence (P62483 whole entry, looked up): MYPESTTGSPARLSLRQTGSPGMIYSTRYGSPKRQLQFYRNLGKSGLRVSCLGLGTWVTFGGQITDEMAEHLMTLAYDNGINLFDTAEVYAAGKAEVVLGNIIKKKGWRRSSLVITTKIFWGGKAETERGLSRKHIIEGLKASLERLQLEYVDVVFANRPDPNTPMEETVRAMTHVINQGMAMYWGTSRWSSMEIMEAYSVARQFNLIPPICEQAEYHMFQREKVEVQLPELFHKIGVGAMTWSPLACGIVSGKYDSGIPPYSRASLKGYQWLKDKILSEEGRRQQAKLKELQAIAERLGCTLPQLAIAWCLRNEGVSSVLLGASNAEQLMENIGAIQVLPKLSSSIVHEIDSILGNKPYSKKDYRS
Procedure Text: enhancers of rat Kvbeta2 NADPH turnover – biochemical, NADPH fluorescence, primary screen (AID 623);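 note: fluorescence intensity change per second fitted from 20 to 320 s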
Run Parameters: Recombinant KvBeta, NADPH fluorescence decrease slope, 10 min; at 10 µM; stronger effect = lower value
Active and inactive are the calls of the source.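 Rule for the calls: active = NADPH fluorescence slope more negative than the mean of all samples by about 3 SD, 99.7% confidence; inactive = the rest.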

Worked cases, answers included:
# Compound, NADPH fluorescence slope
rows = [
    ("COc1ccc(-c2cc(C(F)(F)F)nc(N3CCN(c4ccc(F)cc4)CC3)n2)cc1OC", "2.2e-05 (inactive)"),
    ("CC1(C)OC(=O)C(=CNc2ccccc2F)C(=O)O1", "-1.2e-05 (inactive)"),
    ("CC(=O)c1sc(NC(=O)C2COc3ccccc3O2)nc1C (stereo not drawn)", "-2.4e-05 (inactive)"),
]

Recall the recorded NADPH fluorescence slope for CC(C)Oc1ccc(N2CC(C(=O)Nc3ccccc3F)CC2=O)cc1 (stereo not drawn) with Voltage-gated potassium channel subunit beta-2 (Rattus norvegicus) (UniProt P62483) and state it.
6.3e-06 (inactive)

Find the measured NADPH fluorescence slope: item CCOC(=O)CC(=O)Nc1c(C)cc(C)cc1C , target or system Voltage-gated potassium channel subunit beta-2 (Rattus norvegicus) (UniProt P62483).
6.4e-05 (inactive)
